Ref: the supplement of paper PMC13380429

# System: A549-ACE2 infected with SARS-CoV-2
# protocol notes: cell count relative to DMSO; higher = less toxic
# condition info: 0.1 µM; 24 h
measurement kind: cell count (%)
Return type: number; implicit unit %.

Given the entry NS(=O)(=O)C#Cc1ccccc1 , report its measured cell count.
98

Given the entry CC1=C(C(=O)OC2CCCCC2)C(c2ccc([N+](=O)[O-])cc2)C2=C(CC(C)(C)CC2=O)N1 (centres undefined) , report its measured cell count.
99

Given the entry CN1CCC(CNc2ccc3ncc(-c4cccc(OC(F)(F)F)c4)n3n2)CC1 , report its measured cell count.
105

Given the entry C=C1CC[C@@H]2[C@](C)(CO)[C@H](O)CC[C@@]2(C)[C@@H]1C/C=C1/C(=O)OC[C@H]1O [andrographolide] , report its measured cell count.
101

* * *

Provide the recorded drug-induced phospholipidosis for the entries that follow.
# Test system: A549-ACE2
# protocol notes: drug-induced phospholipidosis relative to tamoxifen; higher = more phospholipidosis
# condition info: 0.3 µM; 24 h
Return type: number; implicit unit %.

Given the entry COc1cc2ncnc(Nc3cccc(Br)c3)c2cc1OC , report its measured drug-induced phospholipidosis.
1.6

Given the entry c1cncc(CN2CCC(n3ncc4c(N5CCOCC5)nc(-c5ccc6[nH]ccc6c5)nc43)CC2)c1 , report its measured drug-induced phospholipidosis.
18.3

Given the entry O=C(NCCCN1CCC2(CC1)OCc1ccccc12)[C@H]1CCCN1Cc1ccccc1 , report its measured drug-induced phospholipidosis.
0.49

Given the entry CC/C(=C(/c1ccc(OCCN(C)C)cc1)c1cccc(O)c1)c1ccccc1 , report its measured drug-induced phospholipidosis.
2.02

Given the entry CN1CCC(CNc2ccc3ncc(-c4cccc(OC(F)(F)F)c4)n3n2)CC1 , report its measured drug-induced phospholipidosis.
8.28

Given the entry CNCCCCOc1ccccc1Cc1ccccc1 , report its measured drug-induced phospholipidosis.
0.28

* * *

# Test system: Caco-2
# protocol notes: cell viability relative to DMSO; higher = less toxic
# condition info: 72 h; 10000 nM
Provide the recorded cell viability for the entries that follow.
Return type: number; implicit unit %.

Lab note: need cell viability for C[N+](C)(C)CCCCCC[N+](C)(C)C on Caco-2, anyone have it?
100

Lab note: need cell viability for Cc1cccc(NC(=O)c2ccc(C(F)(F)F)cc2C(=O)O)n1 on Caco-2, anyone have it?
105

Lab note: need cell viability for CCCCCCCCCCC(C)(C)C(=O)Nc1c(OC)cc(OC)cc1OC on Caco-2, anyone have it?
90.2

Lab note: need cell viability for C[C@H]1CC[C@H](n2c3cnccc3c3cnc(Nc4ccc5c(n4)CCN(C(=O)CO)C5)nc32)CC1 on Caco-2, anyone have it?
91.3

Lab note: need cell viability for CNCCCCOc1ccccc1Cc1ccccc1 on Caco-2, anyone have it?
89.3

Lab note: need cell viability for Nc1ccccc1S(N)(=O)=O [2-aminobenzenesulfonamide] on Caco-2, anyone have it?
101

Lab note: need cell viability for O=C(O)C(Cc1ccccc1[N+](=O)[O-])=NNc1nc(-c2ccc(Cl)c(Cl)c2)cs1 on Caco-2, anyone have it?
84.8

Lab note: need cell viability for Nc1ccn([C@@H]2CS[C@H](CO)O2)c(=O)n1 on Caco-2, anyone have it?
84.5

Lab note: need cell viability for CC(C)OC(=O)c1cc2c(OC[C@@H](O)CNC(C)(C)C)cccc2[nH]1 on Caco-2, anyone have it?
103

Lab note: need cell viability for Cc1c(C)c2c(c(C)c1O)CCC(C)(C(=O)O)O2 (stereo not given) on Caco-2, anyone have it?
90.9

Lab note: need cell viability for COc1cc2c(cc1Cc1cccc(Cl)c1F)c(=O)c(C(=O)O)cn2[C@H](CO)C(C)C on Caco-2, anyone have it?
69.3

Lab note: need cell viability for NS(=O)(=O)C#Cc1ccccc1 on Caco-2, anyone have it?
37.8

Lab note: need cell viability for c1ccc2c(-c3cnn4cc(-c5ccc(N6CCNCC6)cc5)cnc34)ccnc2c1 on Caco-2, anyone have it?
11.4

Lab note: need cell viability for CCOC(=O)[C@H](CCc1ccccc1)N[C@@H](C)C(=O)N1CCC[C@H]1C(=O)O on Caco-2, anyone have it?
100

Lab note: need cell viability for CCCn1c(=O)c2[nH]cnc2n(-c2ccc(Cl)cc2)c1=O on Caco-2, anyone have it?
95.5

Lab note: need cell viability for N#C/C(=C\c1ccc(O)cc1)C(=O)O on Caco-2, anyone have it?
102

Lab note: need cell viability for CN(C)CCOC(c1ccc(Cl)cc1)c1ccccn1 (stereo not given) on Caco-2, anyone have it?
95.3

Lab note: need cell viability for C=CC(=O)Nc1cc(Nc2nccc(-c3cn(C)c4ccccc34)n2)c(OC)cc1N(C)CCN(C)C on Caco-2, anyone have it?
9.1

Lab note: need cell viability for CC1(C)CCC(C)(C)c2cc(C(=O)Nc3ccc(C(=O)O)cc3)ccc21 on Caco-2, anyone have it?
93.9

Lab note: need cell viability for NS(=O)(=O)c1ccc(-n2nc(C(F)(F)F)cc2-c2ccc(Cl)cc2)cc1 on Caco-2, anyone have it?
82.8

* * *

# System: HepG2
# protocol notes: cell viability relative to DMSO; higher = less toxic
# condition info: 72 h; 1000 nM
Provide the recorded cell viability for the entries that follow.
Return type: number; implicit unit %.

Given the entry CC(CNS(=O)(=O)C(C)C)c1ccc(-c2ccc(C#N)cc2)cc1 (stereo not given) , report its measured cell viability.
98.9

Given the entry Nc1[nH]cnc2ncnc1-2 [adenine] , report its measured cell viability.
92.5

Given the entry CC1(C)CCC(C)(C)c2cc(C(=O)Nc3ccc(C(=O)O)cc3)ccc21 [AM-580] , report its measured cell viability.
102

Given the entry CNC(=O)O[C@H]1COc2ccc(N3CCN(C4COC4)CC3)cc2[C@@H]1NC(=O)c1ccc(F)cc1 , report its measured cell viability.
105

Given the entry CN1CCN(CCCCN2C(=O)CN(/N=C/c3ccc(-c4ccc(Cl)cc4)o3)C2=O)CC1 [azimilide] , report its measured cell viability.
103

Given the entry Nc1ccn([C@@H]2CS[C@H](CO)O2)c(=O)n1 [lamivudine] , report its measured cell viability.
99.1

Given the entry CCc1ccc(Cc2ccc3c(c2)[C@]2(OC3)O[C@H](CO)[C@@H](O)[C@H](O)[C@H]2O)cc1 [tofogliflozin] , report its measured cell viability.
105

Given the entry Cc1c(C(=O)NN2CCOCC2)nn(-c2ccc(Cl)cc2Cl)c1-c1ccc(I)cc1 [AM-281] , report its measured cell viability.
101

Given the entry [N-]=[N+]=N[C@]1(CO)O[C@@H](n2ccc(N)nc2=O)[C@H](O)[C@@H]1O [R-1479] , report its measured cell viability.
94.7

Given the entry CCCCC/C=C\C=C\CCCCCCCCC(=O)O [trans-10,cis-12-conjugated-linoleic-acid] , report its measured cell viability.
101

Given the entry O=P(O)(O)C(O)(Cn1ccnc1)P(=O)(O)O [zoledronic-acid] , report its measured cell viability.
97.7

Given the entry C[C@H]1N=C(N(C)C)N=C(N)N1 [imeglimin] , report its measured cell viability.
99

Given the entry CC(=O)OCC(=O)[C@@]1(O)CC[C@H]2[C@@H]3CCC4=CC(=O)CC[C@]4(C)[C@H]3C(=O)C[C@@]21C [cortisone-acetate] , report its measured cell viability.
110

Given the entry CN(C(=O)c1ccc(F)cc1C(F)(F)F)C1CCN(c2nnc(-c3ccnn3C)c3ccccc23)CC1 [taladegib] , report its measured cell viability.
93.5

Given the entry Clc1ccc(Cn2c(CN3CCCC3)nc3ccccc32)cc1 [clemizole] , report its measured cell viability.
106

Given the entry CCOc1ccc2ccccc2c1C(=O)N[C@@H]1C(=O)N2[C@@H]1SC(C)(C)[C@@H]2C(=O)O [nafcillin] , report its measured cell viability.
92.4

Given the entry O=c1[nH]c(CCl)nc2sc3c(c12)CCCC3 , report its measured cell viability.
107

Given the entry COc1cc(Nc2c(C#N)cnc3cc(OCCCN4CCN(C)CC4)c(OC)cc23)c(Cl)cc1Cl [bosutinib] , report its measured cell viability.
81.6

Given the entry O=C1CC[C@@H](C(=O)N2CSC[C@H]2C(=O)O)N1 [pidotimod] , report its measured cell viability.
105

Given the entry C[C@H]1CCc2c(cc(Br)c(F)c2Br)N1C=O [CE3F4] , report its measured cell viability.
100

* * *

Provide the recorded drug sensitivity score for the entries that follow.
# Test system: HepG2
# protocol notes: drug sensitivity score (DSS) for viability; higher = more toxic; extreme values may be limits of the assay
# condition info: 72 h
// return a plain number; no unit text

Given the entry O=C(O)C(Cl)Cl [dichloroacetate] , report its measured drug sensitivity score.
0

Given the entry O=C(COc1cccc2c(=O)[nH]ccc12)c1ccccc1 [UPF-1069] , report its measured drug sensitivity score.
0.1

Given the entry COc1ccc(C(=O)c2ccccc2O)c(O)c1 [dioxybenzone] , report its measured drug sensitivity score.
0

Given the entry CC(CNS(=O)(=O)C(C)C)c1ccc(-c2ccc(C#N)cc2)cc1 (centres undefined) , report its measured drug sensitivity score.
4
